- TARGET: GGTase I (substrate K-Ras4B) (Homo sapiens, UniProt P49354+P53609)
- METHOD_SUMMARY: GGTase I filter-binding assay with K-Ras4B as substrate
- Assay type: biochemical
- MEASUREMENT_SETUP: 50 μM compound; DMSO = 100%; smaller numbers indicate better inhibition; first number of pair; read-out: % activity of GGTase I for protein K-Ras4B in the presence of the compound
READOUT_KIND: activity at 50 µM (%)

Known activity at 50 µM results, listed for orientation:
{"columns": ["MOLECULE", "TARGET", "UNIT_SPEC", "activity at 50 µM"],
 "data": [
  ["C=CCS[C@H]1[C@@H](C(=O)O)[C@H](c2ccc(Cl)cc2)N(S(=O)(=O)c2ccc(C)cc2)[C@@H]1CC1CCCC1", "GGTase I (substrate K-Ras4B) (Homo sapiens, UniProt P49354+P53609)", "%", 25.2],
  ["CCCCCC[C@@H]1[C@@H](Sc2ccc(C)cc2)[C@@H](C(=O)O)[C@H](c2ccc(Cl)cc2)N1S(=O)(=O)c1ccccc1", "GGTase I (substrate K-Ras4B) (Homo sapiens, UniProt P49354+P53609)", "%", 15],
  ["COc1ccc([C@H]2C(C(=O)O)=C[C@@H](C(C)(C)C)N2S(=O)(=O)c2ccc(C)cc2)cc1OC", "GGTase I (substrate K-Ras4B) (Homo sapiens, UniProt P49354+P53609)", "%", 23.4],
  ["Cc1ccccc1S(=O)(=O)N1C(c2ccc(Cl)cc2)CC=C(C(=O)O)[C@@H]1c1ccc(F)cc1 (stereo partly drawn)", "GGTase I (substrate K-Ras4B) (Homo sapiens, UniProt P49354+P53609)", "%", 15.6],
  ["CCC[C@@H]1[C@@H](Sc2ccc(C)cc2)[C@@H](C(=O)O)[C@H](c2cccc(F)c2)N1S(=O)(=O)c1ccc(C)cc1", "GGTase I (substrate K-Ras4B) (Homo sapiens, UniProt P49354+P53609)", "%", 14.7]
]}

(P) Cc1ccc(S(=O)(=O)N2[C@H](CC3CCCC3)[C@@H](SCCC(=O)OC(C)(C)C)[C@@H](C(=O)O)[C@@H]2c2cccc(F)c2)cc1
(Q) C=CCS[C@H]1[C@@H](C(=O)O)[C@H](c2ccc(Br)cc2)N(S(=O)(=O)c2ccc(C)cc2)[C@@H]1CCCCCC
(Q) // which entry has the larger activity at 50 µM value, P or Q ? Record your answer as the label of the chosen record.
(A) P
(P: 31.9%, Q: 15.5%)

(I) C=CCS[C@H]1[C@@H](C(=O)O)[C@H](c2ccc(Cl)cc2)N(S(=O)(=O)c2ccccc2C)[C@@H]1CCC
(II) Cc1ccc(S(=O)(=O)N2[C@H](CC3CCCC3)[C@@H](SCCC(=O)OC(C)(C)C)[C@@H](C(=O)O)[C@@H]2c2ccc(Cl)c(Cl)c2)cc1
(Q) // which entry has the larger activity at 50 µM value, I or II ? Record your answer as the label of the chosen record.
(A) I

(P) Cc1ccc(S(=O)(=O)N2C(c3cccc(Br)c3)CC=C(C(=O)O)[C@@H]2c2cccc(F)c2)cc1 (stereo partly drawn)
(Q) CC[C@@H]1[C@@H](SCCC(=O)OC(C)(C)C)[C@@H](C(=O)O)[C@H](c2ccc(Cl)c(Cl)c2)N1S(=O)(=O)c1ccc(C)cc1
(Q) // which entry has the larger activity at 50 µM value, P or Q ? Record your answer as the label of the chosen record.
(A) Q
(Q: 27.2%, P: 17%)

(A) C=CCS[C@H]1[C@@H](C(=O)O)[C@H](c2ccc(C#N)cc2)N(S(=O)(=O)c2ccc(C)cc2)[C@@H]1CCCCCC
(B) Cc1ccc(S(=O)(=O)N2C(c3cccc(Br)c3)CC=C(C(=O)O)[C@@H]2c2ccccc2)cc1 (stereo partly drawn)
(Q) Identify the entry with the smaller activity at 50 µM: A or B . Record your answer as the label of the chosen record.
(A) A
(A: 21.5%, B: 35.2%)

These measurements were taken from patent US8093274B2.
